Assay: Viability qHTS for spleen associated tyrosine kinase inhibitor (SYKi) naive MV4-11 cells (AID 1963823); note: nearly all actives have a fitted effect of over 40% in size; note: potency is the fitted concentration of half-maximal effect
Conditions: MV4-11 AML viability, CellTiter-Glo luminescence, 72 h; series mostly up to 45 µM
Inconclusive results are not listed. Calls of active or inactive are those of the source. Calls come from the whole dose curve; as a rule, active = well fitted cell-killing curve with a large enough effect; inconclusive = small, poorly fitted or top-dose-only effect, or effect the other way; inactive = no such curve, though single readings can be large or run the other way.

Compound	Potency
COC(=O)C1=CO[C@@H](O[C@@H]2O[C@H](CO)[C@@H](O)[C@H](O)[C@H]2O)[C@H]2[C@@H]1CC(OC)O[C@@H]2C (some centres undefined)	inactive
OCc1ccc(Cl)cc1Cl	6.7 nM (active)
CC(C)CCC1(O)C(=O)C(C)(C)C(O[C@@H]2O[C@H](CO)[C@@H](O)[C@H](O)[C@H]2O)C(C)(C)C1O (some centres undefined)	inactive
CC1(c2ccccc2)OC(C(=O)O)=CC1=O (centres undefined)	inactive
O=C(c1ccccn1)c1cnn2c(-c3ccncc3)ccnc12	inactive
NC(=O)c1ccc2[nH]ccc2c1	inactive
FC1(F)C(F)(F)C(F)(F)C2(F)C(F)(F)C(F)(F)C(F)(F)C(F)(F)C2(F)C1(F)F (centres undefined)	inactive
CCOC(=O)[C@H](CCc1ccccc1)N[C@@H](C)C(=O)N(CC(=O)O)C1Cc2ccccc2C1	inactive
O=C1Nc2ccc(I)cc2/C1=C/c1cc(Br)c(O)c(Br)c1	18600 nM (active)
C=C1C(=O)OC2CC(C)=C(C(C)CCCO)C(O)C12 (centres undefined)	inactive
O=C(Cn1ccnc1[N+](=O)[O-])NCCO	inactive
Nc1ccc(C(=O)O)c(O)c1	inactive
CC(CCc1ccc(O)cc1)O[C@@H]1O[C@H](CO[C@@H]2OC(CO)[C@H](O)[C@H]2O)[C@@H](O)[C@H](O)[C@H]1O (some centres undefined)	inactive
CC1(C(=O)O)CCCC2(C)C3CCC4CC3(CCC12)CC4C(=O)O (centres undefined)	inactive
Cc1sc2c(c1C)C(c1ccc(Cl)cc1)=N[C@H](CC(=O)NCCCCNC(=O)COc1cccc3c1C(=O)N([C@H]1CCC(=O)NC1=O)C3=O)c1nnc(C)n1-2	46.1 nM (active)
O=C(c1cc2c(cc1F)OC(c1ccc(F)cc1)(c1ccc(Cl)cc1Cl)O2)N1CCOCC1 (centres undefined)	inactive
CN(C)CCCNc1nc(CN2CCN(C(c3ccc(Cl)cc3)c3ccc(Cl)cc3)CC2)nc2ccccc12	2060 nM (active)
CN(C)CCOC(=O)C(c1ccccc1)C1(O)CCCC1 (centres undefined)	inactive
CC(C)C1NC(=O)CNC(=O)C2CCCN2C(=O)C(Cc2c[nH]c3ccccc23)NC(=O)CNC(=O)C(C(O)c2ccc(O)cc2)NC(=O)CNC1=O (centres undefined)	inactive
